- Test system: ACP with the sulfated substrate
- assay procedure: TE point mutant activity assay (liberation of holo ACP, HPLC)
- Assay type: biochemical, Lyngbya majuscula
- condition set: relative to wild type CurM TE and free hydrolysis without enzyme, quenched after 1 min
endpoint: % Activity

molecule="N211A: CurM TE mutant of conserved Asn interacting with R205 (protein) MEEKFLEFGGNQICLCSWGSPEHPVVLCIHGILEQGLAWQEVALPLAAQGYRVVAPDLFGHGRSSHLEMVTSYSSLTFLAQIDRVIQELPDQPLLLVGHSMGAMLATAIASVRPKKIKELILVELPLPAEESKKESAVNQLTTCLDYLSSTPQHPIFPDVATAASRLRQAIPSLSEEFSYILAQRITQPNQGGVRWSWDAIIRTRSILGLANLPGGRSQYLEMLKSIQVPTTLVYGDSSKLNRPEDLQQQKMTMTQAKRVFLSGGHNLHIDAAAALASLILTS" test_value="54.7 ± 1.8%"
molecule="R205A: CurM TE point mutant R205A (protein) MEEKFLEFGGNQICLCSWGSPEHPVVLCIHGILEQGLAWQEVALPLAAQGYRVVAPDLFGHGRSSHLEMVTSYSSLTFLAQIDRVIQELPDQPLLLVGHSMGAMLATAIASVRPKKIKELILVELPLPAEESKKESAVNQLTTCLDYLSSTPQHPIFPDVATAASRLRQAIPSLSEEFSYILAQRITQPNQGGVRWSWDAIIRTASILGLNNLPGGRSQYLEMLKSIQVPTTLVYGDSSKLNRPEDLQQQKMTMTQAKRVFLSGGHNLHIDAAAALASLILTS" test_value="6.1 ± 3.1%"
molecule="R205Q: CurM TE point mutant R205Q (protein) MEEKFLEFGGNQICLCSWGSPEHPVVLCIHGILEQGLAWQEVALPLAAQGYRVVAPDLFGHGRSSHLEMVTSYSSLTFLAQIDRVIQELPDQPLLLVGHSMGAMLATAIASVRPKKIKELILVELPLPAEESKKESAVNQLTTCLDYLSSTPQHPIFPDVATAASRLRQAIPSLSEEFSYILAQRITQPNQGGVRWSWDAIIRTQSILGLNNLPGGRSQYLEMLKSIQVPTTLVYGDSSKLNRPEDLQQQKMTMTQAKRVFLSGGHNLHIDAAAALASLILTS" test_value="1.8 ± 0.3%"
